assay-system: 5-HT transporter (Rattus norvegicus, UniProt P31652)
Construct: from tissue; host or cells: rat brain synaptosomes (marrow/medulla and pons), P2 fraction
Sequence (P31652 whole entry): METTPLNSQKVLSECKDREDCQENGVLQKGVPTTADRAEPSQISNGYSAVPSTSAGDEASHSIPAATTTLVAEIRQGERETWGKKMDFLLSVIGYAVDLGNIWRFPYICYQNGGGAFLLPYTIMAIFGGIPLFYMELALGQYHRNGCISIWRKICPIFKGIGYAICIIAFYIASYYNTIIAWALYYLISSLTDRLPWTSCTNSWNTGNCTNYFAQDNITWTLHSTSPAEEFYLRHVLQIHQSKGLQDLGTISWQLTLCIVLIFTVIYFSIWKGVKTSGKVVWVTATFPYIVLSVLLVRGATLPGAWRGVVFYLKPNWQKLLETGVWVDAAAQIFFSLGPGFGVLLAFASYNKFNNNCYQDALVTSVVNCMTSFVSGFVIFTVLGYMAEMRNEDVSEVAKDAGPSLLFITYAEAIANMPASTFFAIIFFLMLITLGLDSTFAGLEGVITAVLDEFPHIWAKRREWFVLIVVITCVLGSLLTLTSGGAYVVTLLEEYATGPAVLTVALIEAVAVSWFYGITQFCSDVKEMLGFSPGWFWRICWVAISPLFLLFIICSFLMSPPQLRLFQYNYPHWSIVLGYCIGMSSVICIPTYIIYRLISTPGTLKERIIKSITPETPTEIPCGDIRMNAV
procedure-summary: Inhibition of 5-HT uptake in synaptosomes
Type: biochemical
applied-conditions: read-out: Uptake_5-HT, rat, 1 μM, % inhibition
Class boundaries, taken from values of inhibition at 1 µM, are as follows: low: < 40%; middle: ≥ 40% and < 60%; high: ≥ 60%

INSERT INTO measurements (compound, label_value) VALUES
  ('CCCCN1C(=O)C(C(C)C)NC12CCN(C(=S)Nc1cccc(C)c1)CC2 (stereo not shown)', 'middle'),
  ('CCOC(=O)CN1C(=O)C(Cc2ccccc2)NC12CCN(C(=S)Nc1ccccc1C(=O)OC)CC2 (stereo not shown)', 'high'),
  ('CCCCN1C(=O)C(C(C)C)NC12CCN(C(=S)NC(C)C)CC2 (stereo not shown)', 'low'),
  ('COC(=O)c1ccccc1S(=O)(=O)N1CCC2(CC1)NC(CCSC)C(=O)N2Cc1ccc(F)cc1 (stereo not shown)', 'high'),
  ('CN(C)S(=O)(=O)N1CCC2(CC1)NCC(=O)N2Cc1ccccc1F', 'middle'),
  ('CCCCN1C(=O)C(C(C)C)NC12CCN(C(=S)Nc1ccccc1C(=O)OC)CC2 (stereo not shown)', 'low'),
  ('CCOC(=O)CN1C(=O)C(Cc2ccccc2)NC12CCN(S(=O)(=O)c1ccccc1C(=O)OC)CC2 (stereo not shown)', 'high');

----------
Tested on: batrachotoxin (BTX) binding site of the sodium channel
procedure-summary: Affinity to the batrachotoxin (BTX) binding site of the sodium channel
applied-conditions: rat cerebrocortex synaptosomes, [3H]-batrachotoxinin A20 α-benzoate 10 nM; test concentration not given
List of BTX Inhibition values.
parameter-measured: BTX Inhibition

INSERT INTO assay_data (compound, measured_result) VALUES
  ('CCOC(=O)CN1C(=O)C(CCSC)NC12CCN(S(=O)(=O)Cc1ccccc1)CC2 (stereo not shown)', 34),
  ('COc1ccc(OC)c(NC(=O)N2CCC3(CC2)NC(CCSC)C(=O)N3Cc2cccc(C#N)c2)c1 (stereo not shown)', 46),
  ('CSCCC1NC2(CCN(C(=S)Nc3cccc(C)c3)CC2)N(Cc2ccccc2C#N)C1=O (stereo not shown)', 53),
  ('CSCCC1NC2(CCN(C(=S)NCc3ccc(Cl)cc3)CC2)N(Cc2ccccc2C#N)C1=O (stereo not shown)', 72),
  ('O=C1C(Cc2ccccc2)NC2(CCN(S(=O)(=O)c3cccs3)CC2)N1Cc1ccccc1 (stereo not shown)', 50),
  ('Cc1cc(C)c(S(=O)(=O)N2CCC3(CC2)NC(C(C)C)C(=O)N3Cc2ccccc2)c(C)c1 (stereo not shown)', 68),
  ('C=CCN1C(=O)C(C(C)C)NC12CCN(C(=O)Nc1cc(F)ccc1F)CC2 (stereo not shown)', 31),
  ('COc1ccccc1NC(=S)N1CCC2(CC1)NC(C(C)C)C(=O)N2Cc1ccccc1 (stereo not shown)', 32),
  ('CCOC(=O)CN1C(=O)C(Cc2ccccc2)NC12CCN(S(=O)(=O)Cc1ccccc1)CC2 (stereo not shown)', 47),
  ('CCCCN1C(=O)C(Cc2ccccc2)NC12CCN(S(=O)(=O)c1cccc(Cl)c1)CC2 (stereo not shown)', 49),
  ('COc1cc(C)c(S(=O)(=O)N2CCC3(CC2)NC(Cc2ccccc2)C(=O)N3Cc2ccccc2)c(C)c1C (stereo not shown)', 82),
  ('CCCCN1C(=O)C(CCSC)NC12CCN(C(=S)NCc1ccccc1OC)CC2 (stereo not shown)', 44),
  ('CCOc1ccc(NC(=O)N2CCC3(CC2)NC(CCSC)C(=O)N3Cc2ccc(F)cc2)cc1 (stereo not shown)', 48),
  ('CSCCC1NC2(CCN(C(=O)Nc3cccc(C(C)=O)c3)CC2)N(Cc2ccccc2C#N)C1=O (stereo not shown)', 31),
  ('CSCCC1NC2(CCN(C(=S)NCc3ccc(F)cc3)CC2)N(C)C1=O (stereo not shown)', 50),
  ('CSCCC1NC2(CCN(C(=S)NCc3cc(F)ccc3F)CC2)N(C)C1=O (stereo not shown)', 34);

----------
Tested on: batrachotoxin (BTX) binding site of the sodium channel
procedure-summary: Affinity to the batrachotoxin (BTX) binding site of the sodium channel
applied-conditions: rat cerebrocortex synaptosomes, [3H]-batrachotoxinin A20 α-benzoate 10 nM; test concentration not given
parameter-measured: BTX Inhibition

INSERT INTO results (compound, measured_result) VALUES
  ('C#CCN1C(=O)C(CC(C)C)NC12CCN(C(=S)Nc1cc(Cl)cc(Cl)c1)CC2 (stereo not shown)', 77),
  ('CN1C(=O)C(Cc2ccccc2)NC12CCN(C(=S)NCc1ccc(Cl)cc1)CC2 (stereo not shown)', 63),
  ('CSCCC1NC2(CCN(C(=S)NC(C)c3ccccc3)CC2)N(Cc2ccc3ccccc3c2)C1=O (stereo not shown)', 88),
  ('CC(C)CC1NC2(CCN(C(=O)NCc3ccc(Cl)c(Cl)c3)CC2)N(Cc2ccccc2C#N)C1=O (stereo not shown)', 78);

----------
assay-system: 5-HT transporter (Rattus norvegicus, UniProt P31652)
Construct: from tissue; host or cells: rat brain synaptosomes (marrow/medulla and pons), P2 fraction
procedure-summary: Inhibition of 5-HT uptake in synaptosomes
Type: biochemical
applied-conditions: read-out: Uptake_5-HT, rat, 1 μM, % inhibition
parameter-measured: inhibition at 1 µM (%)

INSERT INTO assay_data (compound, measured_result) VALUES
  ('CCCCS(=O)(=O)N1CCC2(CC1)NC(Cc1ccccc1)C(=O)N2CC(=O)OCC (centres unmarked)', 70),
  ('CCCCN1C(=O)C(C(C)C)NC12CCN(C(=S)NCc1ccc(Cl)cc1)CC2 (centres unmarked)', 51),
  ('CSCCC1NC2(CCN(C(=S)NCc3ccc(F)cc3)CC2)N(Cc2ccc(F)cc2)C1=O (centres unmarked)', 30),
  ('CC(C)C1NC2(CCN(C(=S)NCc3ccc(F)cc3)CC2)N(Cc2ccccc2)C1=O (centres unmarked)', 47),
  ('O=C1C(Cc2ccccc2)NC2(CCN(S(=O)(=O)c3cccs3)CC2)N1Cc1ccccc1 (centres unmarked)', 82),
  ('O=C(NCc1ccc(Cl)c(Cl)c1)N1CCC2(CC1)NC(Cc1ccccc1)C(=O)N2Cc1ccccc1F (centres unmarked)', 44),
  ('CCCCN1C(=O)C(CCSC)NC12CCN(C(=S)NCC1CCCCC1)CC2 (centres unmarked)', 30),
  ('CSCCC1NC2(CCN(C(=S)Nc3ccccc3C)CC2)N(Cc2ccc(F)cc2)C1=O (centres unmarked)', 55);

----------
System: batrachotoxin (BTX) binding site of the sodium channel
procedure-summary: Affinity to the batrachotoxin (BTX) binding site of the sodium channel
applied-conditions: rat cerebrocortex synaptosomes, [3H]-batrachotoxinin A20 α-benzoate 10 nM; test concentration not given
parameter-measured: BTX Inhibition

INSERT INTO results (compound, measured_result) VALUES
  ('CN1C(=O)C(Cc2ccccc2)NC12CCN(C(=S)NCc1cc(F)ccc1F)CC2 (stereo not shown)', 42),
  ('CCCCN1C(=O)C(CCSC)NC12CCN(C(=S)Nc1c(F)c(F)c(F)c(F)c1F)CC2 (stereo not shown)', 40),
  ('COC(=O)c1ccc(CN2C(=O)C(C(C)C)NC23CCN(C(=O)Nc2ccc(Cl)c(C(F)(F)F)c2)CC3)cc1 (stereo not shown)', 78),
  ('CCOC(=O)CN1C(=O)C(Cc2ccccc2)NC12CCN(S(=O)(=O)c1cc(OC)ccc1OC)CC2 (stereo not shown)', 30),
  ('CSCCC1NC2(CCN(S(=O)(=O)c3cc(C)c(Cl)cc3C)CC2)N(Cc2ccc(F)cc2)C1=O (stereo not shown)', 38),
  ('CSCCC1NC2(CCN(C(=O)Nc3cccc(C#N)c3)CC2)N(Cc2ccc(F)cc2)C1=O (stereo not shown)', 47),
  ('COC(=O)c1ccc(CN2C(=O)C(C(C)C)NC23CCN(C(=O)NCc2ccc(Cl)c(Cl)c2)CC3)cc1 (stereo not shown)', 55),
  ('CCCCN1C(=O)C(CCSC)NC12CCN(C(=O)Nc1cc(OC)c(OC)c(OC)c1)CC2 (stereo not shown)', 44),
  ('Cc1ccc(S(=O)(=O)N2CCC3(CC2)NC(C(C)C)C(=O)N3CCOc2ccccc2)cc1 (stereo not shown)', 54),
  ('CSCCC1NC2(CCN(C(=S)Nc3cc(C(F)(F)F)ccc3Cl)CC2)N(Cc2ccccc2C#N)C1=O (stereo not shown)', 81),
  ('O=C1C(Cc2ccccc2)NC2(CCN(S(=O)(=O)c3ccccc3F)CC2)N1Cc1ccccc1 (stereo not shown)', 61),
  ('CC(=O)c1cccc(NC(=S)N2CCC3(CC2)NC(CC(C)C)C(=O)N3Cc2ccccc2C#N)c1 (stereo not shown)', 50),
  ('CCOC(=O)c1ccc(NC(=O)N2CCC3(CC2)NC(Cc2ccccc2)C(=O)N3Cc2ccccc2F)cc1 (stereo not shown)', 77),
  ('CSCCC1NC2(CCN(C(=S)Nc3ccc(C(C)C)cc3)CC2)N(Cc2ccccc2)C1=O (stereo not shown)', 97),
  ('CCCCN1C(=O)C(CCSC)NC12CCN(C(=O)Nc1ccccc1)CC2 (stereo not shown)', 35),
  ('CSCCC1NC2(CCN(C(=S)NCC3CCCO3)CC2)N(Cc2ccc(F)cc2)C1=O (stereo not shown)', 38);
